Measured apparent KD of MS2 coat protein of individual entries
# Tested on: MS2 coat protein
# assay comment: apparent KD of MS2 coat protein; designed switch direction (-1 OFF switch, 1 ON switch): 1; higher = weaker reporter binding
# measurement conditions: Eterna round: R95; input ligand: FMN 200 uM
For clarity, give the value followed by its unit.

Below: 3 sequences and their reported apparent KD of MS2 coat protein.
chain sequence: AACAAUCUUUCUGAGGAUAUCAUGAAAUAAACAUGAGGAUCACCCAUGUGCAGGAAAACUGCAUAUGAGAAGGCAGAUAGAUUGA [salish99_ss2_r3_024] (puzzle: Same State 2)
readout name: apparent KD of MS2 coat protein
result: 43.3 nM
//
chain sequence: UUUAGUUGCGGGCAGGAUAUGUAUUAAAAUACAUGAGGAUCACCCAUGUGAGACCAUAAAGGUCUACAGAAGGGCCAAUCGCGAC [Laonerce - 19] (puzzle: Same State 2)
readout name: apparent KD of MS2 coat protein
result: 14.9 nM
//
chain sequence: AACGUUGGCGAGCAGGAUAUCCGCUCAUUAACAUGAGGAUCACCCAUGUUCUGCAAGAUGUGCUAGGAGAAGGGCUGGUCGACAU [Edatar] (puzzle: Same State 2)
readout name: apparent KD of MS2 coat protein
result: 14.9 nM

Memo: UCUUGGUUUUUGCUCGUUUUUUGUGUUGAACAUGAGGAUCACCCAUGUAUUGUACGGUCCAAUUUAAUAAUAAUCCG [JMF 64] (puzzle: Sensor for hsa-mir-208a) , reported apparent KD of MS2 coat protein: 28.8 nM

Memo: AGUCCAGCCUAAGCUGGACAAAAGCAUGUACAUGAGGAUCACCCAUGUUCAUGUACAAGCUUUUUGCAAGUCAAAAU [Mat - hsa-mir-208a - Mod of JL - 79] (puzzle: Sensor for hsa-mir-208a) , reported apparent KD of MS2 coat protein: 1050 nM

###

# System: MS2 coat protein
# assay comment: apparent KD of MS2 coat protein; designed switch direction (-1 OFF switch, 1 ON switch): -1; higher = weaker reporter binding
# measurement conditions: Eterna round: R95; input ligand: microRNA oligo, concentration not stated
Measured apparent KD of MS2 coat protein of individual entries
The response must be a number in nM with no trailing unit.

Below: 2 sequences and their reported apparent KD of MS2 coat protein.
chain sequence: AAGUACCGUCACGAUAGUGAUGGUACAACAAGCAUGUAAACAUGAGGAUCACCCAUGUCCUCAUAUGCUCGUCUUAU [Sensor 3 - 64] (puzzle: Sensor v3, turn-off variant 2)
target under test: MS2 coat protein
readout name: apparent KD of MS2 coat protein
numeric value: 34.3
--
chain sequence: CGGUGCUGAGGAUAUACAUGAGGAUCACCCAUGUGUUCCUGCUAGCGUACUGGCAGAUGUAGAAGGCGGUACUG [JL-ex3-3.44 Brourd mod] (puzzle: Exclusion 3)
target under test: MS2 coat protein
readout name: apparent KD of MS2 coat protein
numeric value: 20.8

Turning to the following sequence.
Memo: UCCUAACAUGAGGAUCACCCAUGUGAGGAUAUGAUACUAUGUACUUCGGUACAUAGUAUCAGAAGGCACAUCCU [Ex1-3: 8] (puzzle: Exclusion 1) , reported apparent KD of MS2 coat protein: 17.5

###

# System: MS2 coat protein
# assay comment: apparent KD of MS2 coat protein; higher = weaker reporter binding
# measurement conditions: Eterna round: R107; input ligand: none
Measured apparent KD of MS2 coat protein of individual entries
The response must be a number in nM with no trailing unit.

Below: 2 sequences and their reported apparent KD of MS2 coat protein.
chain sequence: ACAUGAGGAUCACCCAUGUAUUACCGGGAAGGAGCGCGUGAAAACGCAGGUAGGUCGCUCGGCGUCGUGCUGUAAAGCACGACGA [#1 Same State - Arginine A Attempt #25 (HarryS)]
target under test: MS2 coat protein
unit abbrev: nM
apparent KD of MS2 coat protein: 11.5
--
chain sequence: GGGCGCGUGGACUGGCGUGCUCCGCUCCGUCGAGGACCGGUACGGCCGCCACUCGACAUGAGGAUCACCCAUGUGUGCGCUCGCG [#1 Exclusion - Tryptophan A Attempt #18 (HarryS)]
target under test: MS2 coat protein
unit abbrev: nM
apparent KD of MS2 coat protein: 21

Memo: ACACGGGCAUGAGGAUCACCCAUGUAAUAACGAGGACCGGUACGGCCGCCACUCGUGCACCGUGACCUGUACGAAAAGUGCAGGA , reported apparent KD of MS2 coat protein: 20.8

Memo: ACGAUAGCACACGAGGAUCACCCGUGUGAUACCAGCCUGGAAACAGGCCCUUGGCAGCACACAAUAAAAGUGUAACUAUCGAAUA [TheoAX4 #MicroSwitchBubble #AlternativeMS2] , reported apparent KD of MS2 coat protein: 54.2

Memo: UGUAUGGACUGAAGGAGCGCAUCAAAAUAACAUGAGGAUCACCCAUGUAAGGCGAAAGCCGUGCAGGUAGGUCGCAGUCCAUACU [ArgBX 3] , reported apparent KD of MS2 coat protein: 15.6

Memo: CGCAACCCACAUGAGGAUCACCCAUGUGAAGGAGCGGCGAAUAAGCCAGGUAGGUCGCGCAUGAAUAAAUCAUGUAGGAAGCGAA [XArg-A 7 V1&2] , reported apparent KD of MS2 coat protein: 20.1

Memo: UGUAUGGACUGAAGGAGCGGGUUGAUAACUUGAGGAUCACCCAGGUAAAAGGCGAAAGCCACCCAGGUAGGUCGCAGUCCAUACU , reported apparent KD of MS2 coat protein: 57.9

Memo: AGACAUGAGGAUCACCCAUGUAGUACGGAUACCAGAUCCAGAUGUAUCCCUUGGCAGCUGUGGUACAGCGUUGCAUCGCUCCUAG [Exclusion - Theophylline A (Freestyle 19)] , reported apparent KD of MS2 coat protein: 16.6

Memo: GUCUCUGGGAGAAGGAGCGUGAAGACAUGAGGAUCACCCAUGUAGAGGCGCCGACGGCGUUCGCAGGUAGGUCGCUCCCAGAGAC [#1 Same State - Arginine B Attempt #18 (HarryS)] , reported apparent KD of MS2 coat protein: 23.9

Memo: UUACAUGAGGAUCACCCAUGUCAUACAGAAGGAGCGUCACAUAAGACAGGUAGGUCGCUGUUAUAUCAUACUAUUAUAUCCUCUA [JR_Nu_ExcArginiA_Sub028] , reported apparent KD of MS2 coat protein: 40.4

Memo: UGACAUUGCUCAGAUACCAGACACGAGGAUCACCCGUGUGCCAACAAGUACAAAAUAAAUGUCCCUUGGCAGCUGAGCAAUGUCU [TheoBX 24 #MS2Left #AlternativeMS2 #Theo22] , reported apparent KD of MS2 coat protein: 12.2

Taken from the supplement of paper PMC9170038.
